assay: in vivo; settings: mouse, plasma, iv
Residues, ends and D or L forms follow the SMILES beside them.
valueKind: half-life

Quick one: half-life for C[C@H](NC(=O)[C@@H](N)Cc1c[nH]cn1)C(=O)N[C@@H](CCC(=O)O)C(=O)N[C@@H](CCC(=O)O)C(=O)O [HAEE] (H-HAEE-OH) ?
17 min

The measured values listed here are drawn from paper PMC12726774.
